# protocol text: Pseudomonas biofilm growth suppression – PAO1 strain, BacTiter-Glo luminescence, LB-PBS, primary screen (AID 1144)
# run conditions: P. aeruginosa PAO1 biofilm, 12 h, higher = more signal
We'd kindly ask you to apply these z-score classes: lo (below -0.5), mid (-0.5 to below 0.07), hi (0.07 or more)

Check out these entries, answers already filled in.
{"structure string": "O=C1O[C@H](c2ccccc2)[C@H](c2ccccc2)N2[C@H]1[C@@H](C(=O)NC[C@H](O)c1ccccc1)[C@]1(C(=O)Nc3ccc(C#CC4(O)CCCCCC4)cc31)[C@H]2c1ccccc1OCCO", "assigned category": "lo"}
{"structure string": "C=C(COC)/C(=C/C[C@H](OC(C)=O)c1ccccc1OCCO)c1cnc2ccccc2c1", "assigned category": "lo"}
{"structure string": "CC[C@@H]1C=C(C(=O)O)[C@H](c2ccc(C(C)C)cc2)N1S(=O)(=O)c1ccc(C)cc1", "assigned category": "hi"}
{"structure string": "O=C1O[C@@H](c2ccccc2)[C@@H](c2ccccc2)N2[C@@H](c3ccc(O)cc3)[C@]3(C(=O)Nc4ccccc43)[C@@H](C(=O)NC[C@H](O)c3ccccc3)[C@H]12", "assigned category": "hi"}
{"structure string": "C=CCOC(=O)[C@H]1[C@@H]2C(=O)O[C@@H](c3ccccc3)[C@@H](c3ccccc3)N2[C@@H](c2ccc(OCCOC(=O)[C@H]3C[C@H]4C(=O)N[C@@H](CCCC[N+](C)(C)C)C(=O)N4[C@H]3c3ccc(O)cc3)cc2)[C@]12C(=O)Nc1ccccc12", "assigned category": "lo"}
{"structure string": "COC(=O)[C@@]1(Cc2ccc(OC)cc2)[C@H]2c3cc(C(=O)N4CCCC4)n(C[C@H](O)CO)c3C[C@H]2CN1C(=O)c1ccccc1", "assigned category": "mid"}
{"structure string": "CN(C)CCCC[C@@H]1NC(=O)[C@@H]2C[C@H](C(=O)NCc3ccc(F)cc3)[C@H](c3cccc(OCCO)c3)N2C1=O", "assigned category": "lo"}
{"structure string": "C#C[C@H](O[Si](C#CCCCCCC)(C(C)C)C(C)C)c1ccccc1", "assigned category": "mid"}
{"structure string": "COCCOC(=O)N1C(=O)[C@@]2(c3ccccc31)[C@H](C(=O)N1CCCCCCC1)[C@H]1C(=O)O[C@H](c3ccccc3)[C@H](c3ccccc3)N1[C@@H]2c1ccccc1OCCO", "assigned category": "lo"}
{"structure string": "CC(C)[Si]1(C(C)C)O[C@@H](c2ccccc2)c2cc(-c3ccc(-c4ccc(Cl)c(Cl)c4)o3)nc(CCc3ccccc3)c21", "assigned category": "hi"}

-- ask Bin? COC(=O)c1nc2oc1CC[C@@H](CO)NC(=O)N(C)Cc1cn(nn1)C[C@H](Cc1ccccc1)NC2=O
-- reply mid

-- ask Which bin should I file COC(=O)[C@@]1(Cc2ccc(F)cc2)[C@H]2c3cc(C(=O)N(C)C)n(CCc4c[nH]c5ccc(OC)cc45)c3C[C@H]2CN1C(=O)c1ccccc1 under?
-- reply hi
